assay.name: Apparent permeability from apical to basolateral across human Caco2 cells at pH 7.4 at 10 uM by Transwell assay
Assay type: ADME, cell-based
experimental.context: Caco-2, pH 7.4
The molecules listed here are annotated with their Papp A→B at 10 µM.
Give just the number in ×10⁻⁶ cm/s; leave the unit off.

These recorded examples may help you get a feel for the data.
Q) What Papp A→B at 10 µM value was documented for this molecule, CCCNc1cc(NC(=O)c2ccccc2)cc(C(F)(F)F)c1 ?
A) 6.2

Q) // returns reported Papp A→B at 10 µM for input CCCNc1cc(NC(=O)c2c(F)cccc2F)cc(C(F)(F)F)c1
A) 2.7

Now consider a different molecule.
Q) Entry under review: CC(C)Nc1cc(NC(=O)c2c(F)cccc2F)cc(C(F)(F)F)c1 . Reported Papp A→B at 10 µM?
A) 6.9

====

assay.name: Thermodynamic solubility of the compound in buffer at pH 7.4 by HPLC/UV detection method
Type: physicochemical
experimental.context: read-out: Therm_solubility
reported.metric: solubility thermodynamic (µM)
Respond with the bare value in µM.

Q) Give its solubility thermodynamic value. Item: CCNc1cc(NC(=O)c2c(F)cccc2F)cc(C(F)(F)F)c1
A) 5

New cases:
Q) Which solubility thermodynamic is listed for CCCNc1cc(NC(=O)c2ccccc2)cc(C(F)(F)F)c1 ?
A) 8

Q) Which solubility thermodynamic is listed for CC(C)Nc1cc(NC(=O)c2c(F)cccc2F)cc(C(F)(F)F)c1 ?
A) 1

Q) For CCCNc1cc(NC(=O)c2c(F)cccc2F)cc(C(F)(F)F)c1 , what is its reported solubility thermodynamic?
A) 7

====

system.tested: Transient receptor potential cation channel subfamily A member 1 (Homo sapiens)
Sequence (O75762 whole entry): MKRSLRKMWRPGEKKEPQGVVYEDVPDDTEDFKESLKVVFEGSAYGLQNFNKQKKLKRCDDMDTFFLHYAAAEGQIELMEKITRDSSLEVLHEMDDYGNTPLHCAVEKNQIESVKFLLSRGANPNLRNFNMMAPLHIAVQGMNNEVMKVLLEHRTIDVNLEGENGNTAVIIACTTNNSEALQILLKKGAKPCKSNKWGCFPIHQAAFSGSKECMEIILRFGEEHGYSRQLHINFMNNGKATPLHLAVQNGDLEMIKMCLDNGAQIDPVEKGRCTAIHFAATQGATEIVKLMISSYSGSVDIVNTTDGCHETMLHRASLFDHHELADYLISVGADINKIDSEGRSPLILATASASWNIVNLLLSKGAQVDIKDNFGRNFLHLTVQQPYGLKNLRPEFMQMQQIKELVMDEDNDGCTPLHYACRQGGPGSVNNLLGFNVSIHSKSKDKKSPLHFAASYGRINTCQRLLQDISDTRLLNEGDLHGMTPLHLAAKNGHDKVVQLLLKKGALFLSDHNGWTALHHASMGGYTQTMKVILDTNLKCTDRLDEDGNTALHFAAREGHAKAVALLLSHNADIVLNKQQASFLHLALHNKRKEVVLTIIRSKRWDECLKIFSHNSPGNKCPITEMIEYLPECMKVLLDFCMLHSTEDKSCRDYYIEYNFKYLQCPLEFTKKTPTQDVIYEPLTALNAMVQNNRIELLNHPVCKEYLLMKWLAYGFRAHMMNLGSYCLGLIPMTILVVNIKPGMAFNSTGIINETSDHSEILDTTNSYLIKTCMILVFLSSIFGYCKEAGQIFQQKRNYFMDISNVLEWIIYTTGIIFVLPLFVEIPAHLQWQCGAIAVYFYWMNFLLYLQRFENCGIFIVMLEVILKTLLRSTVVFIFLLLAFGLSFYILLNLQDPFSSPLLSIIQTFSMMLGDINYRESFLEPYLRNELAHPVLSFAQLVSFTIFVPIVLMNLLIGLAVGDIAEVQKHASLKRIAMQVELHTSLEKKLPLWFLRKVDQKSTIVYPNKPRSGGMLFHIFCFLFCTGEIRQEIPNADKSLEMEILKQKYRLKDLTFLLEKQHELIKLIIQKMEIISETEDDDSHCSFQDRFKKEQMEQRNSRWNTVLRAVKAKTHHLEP
assay.name: Antagonist activity at human TRPA1 expressed in HEK293-TREx cells assessed as change in calcium level by Fluo-4NW assay
Would you mind classing the entries by IC50? Ranges: band A (below 800 nM), band B (800 nM to below 2000 nM), band C (2000 nM or more)

Q) Could you place CCCNc1cc(NC(=O)c2cccs2)cc(C(F)(F)F)c1 in its proper category? Many thanks.
A) band A

Q) Sort CCCOc1cc(NC(=O)c2c(F)cccc2F)cc(C(F)(F)F)c1 into one of the categories.
A) band C

Q) Pick a category. Item: CCCNc1cc(C)cc(NC(=O)c2c(F)cccc2F)c1
A) band B

Q) // bin(item) where item = CCCN(CCC)c1cc(NC(=O)c2cccs2)cc(C(F)(F)F)c1
A) band C

Q) Consider O=C(Nc1cc(NCc2cccs2)cc(C(F)(F)F)c1)c1cccs1 . To which IC50 class does it belong?
A) band C

Q) Looking at COC(=O)Nc1cc(NC(=O)c2cccs2)cc(C(F)(F)F)c1 , which class would you pick?
A) band C

Q) Which category does the recorded IC50 put CCCNc1cc(NC(=O)c2ccncc2)cc(C(F)(F)F)c1 in?
A) band C

Q) Form: Item = CCCNc1cc(NC(=O)c2ccccc2)cc(C(F)(F)F)c1 ; Class = ?
A) band A

Q) Band for the recorded IC50 of CCCNc1cc(N)cc(C(F)(F)F)c1 ?
A) band C

Q) Returns: class label. Input: CC(C)Nc1cc(NC(=O)c2c(F)cccc2F)cc(C(F)(F)F)c1
A) band A

Others:
Q) Please let me know in which category the item CCCNc1cc(NC(=O)c2ccc(F)c(F)c2)cc(C(F)(F)F)c1 belongs.
A) band B

Q) Sort into band: CCCN(C)c1cc(NC(=O)c2c(F)cccc2F)cc(C(F)(F)F)c1
A) band C

Q) Exam item: assign CCCNc1cc(NC(=O)c2ccc(F)cc2)cc(C(F)(F)F)c1 to the correct category.
A) band B

====

system.tested: Transient receptor potential cation channel subfamily A member 1 (Homo sapiens)
assay.name: Antagonist activity at human TRPA1 expressed in HEK293-TREx cells assessed as change in calcium level by Fluo-4NW assay
reported.metric: pIC50
pIC50 here is simply -log10 of the concentration when that concentration is written in mol/L.

Below, each entry is followed by its recorded pIC50 result.
Q) Give recorded pIC50 with Transient receptor potential cation channel subfamily A member 1 (Homo sapiens) for the following compound: CC(C)CNc1cc(NC(=O)c2cccs2)cc(C(F)(F)F)c1
A) 6.10

Q) Could you share what pIC50 was measured for CC(C)C(C)Nc1cc(NC(=O)c2cccs2)cc(C(F)(F)F)c1 (stereo not given) , tested on Transient receptor potential cation channel subfamily A member 1 (Homo sapiens)?
A) 5.89

Q) Fill in the recorded pIC50 for this compound, with Transient receptor potential cation channel subfamily A member 1 (Homo sapiens) as test system: CC(C)Nc1cc(NC(=O)c2cccs2)cc(C(F)(F)F)c1
A) 6.54

Now look at this entry.
Q) Please tell me: pIC50 of O=C(Nc1cc(NCc2ccccc2)cc(C(F)(F)F)c1)c1cccs1 , system Transient receptor potential cation channel subfamily A member 1 (Homo sapiens)?
A) 5.54
